test system: NHBE cells; experiment: Biolog metabolic array: substrate use by NHBE cells with or without CA09 infection; format: cell-based, human; conditions: Virus (CA09-infected, MOI 1) NHBE cells, 8 hr
Each record is given YES if its reported 590 nm absorbance normalized to zero hour (substrate use), 8 hr is strictly below 3. Records at or above 3 are given NO.

Here's what some known entries look like.
[[record]]
compound = "O=C(CO)[C@@H](O[C@H]1O[C@H](CO)[C@@H](O)[C@H](O)[C@H]1O)[C@H](O)[C@H](O)CO"
cat = "YES"

[[record]]
compound = "O=C(CO)[C@@H](O)[C@@H](O)[C@H](O)CO"
cat = "YES"

[[record]]
compound = "O=C(CO)[C@@H](O)[C@H](O)[C@H](O)COP(=O)(O)O [D-Fructose-6-Phosphate]"
cat = "YES"


590 nm absorbance normalized to zero hour (substrate use), 8 hr strictly < 3 for this compound? N[C@@H](C(=O)O)[C@@H](O)[C@H](O)[C@H](O)CO
NO

State whether 3 exceeds 590 nm absorbance normalized to zero hour (substrate use), 8 hr recorded for O=P(O)(O)O[C@H]1O[C@H](CO)[C@@H](O)[C@H](O)[C@H]1O [D-Glucose-1-Phosphate] .
NO

Lab note: confirm whether the reported 590 nm absorbance normalized to zero hour (substrate use), 8 hr for this compound is below 3, equality not counting. compound: OC[C@H]1O[C@@](CO)(O[C@H]2O[C@H](CO)[C@@H](O)[C@H](O)[C@H]2O)[C@@H](O[C@H]2O[C@H](CO)[C@@H](O)[C@H](O)[C@H]2O)[C@@H]1O
NO

Take the compound NCCO and say whether its 590 nm absorbance normalized to zero hour (substrate use), 8 hr is less than 3.
NO

590 nm absorbance normalized to zero hour (substrate use), 8 hr under 3? Item: CC[C@H](O)C(=O)O (racemic) [D,L-a-Hydroxy-Butyric Acid]
YES

I'd appreciate it if you could check whether OC[C@H]1O[C@H](OC[C@H]2O[C@H](OC[C@H]3O[C@H](O[C@]4(CO)O[C@H](CO)[C@@H](O)[C@@H]4O)[C@H](O)[C@@H](O)[C@@H]3O)[C@H](O)[C@@H](O)[C@H]2O)[C@H](O)[C@@H](O)[C@H]1O has 590 nm absorbance normalized to zero hour (substrate use), 8 hr smaller than 3.
NO

Please determine if OC[C@@H](O)[C@H](O)[C@@H](O)CO is below 3 in terms of 590 nm absorbance normalized to zero hour (substrate use), 8 hr.
NO

Hi there! Is 590 nm absorbance normalized to zero hour (substrate use), 8 hr for CO[C@H]1O[C@H](CO)[C@H](O)[C@H](O)[C@H]1O [a-Methyl-D-Galactoside] below 3, do you know?
YES

Please check: 590 nm absorbance normalized to zero hour (substrate use), 8 hr for CO[C@@H]1OC[C@@H](O)[C@H](O)[C@H]1O [b-Methyl-D-Xyloside] , strictly under 3 or not?
NO

Bench note: check whether O=C(O)C[C@H](O)C(=O)O shows 590 nm absorbance normalized to zero hour (substrate use), 8 hr below 3
NO

Regarding CC(=O)C(=O)O , kindly confirm whether its 590 nm absorbance normalized to zero hour (substrate use), 8 hr is beneath 3.
YES

Check if 590 nm absorbance normalized to zero hour (substrate use), 8 hr falls below 3 for COC(=O)CCC(=O)O [Mono Methyl Succinate] .
YES
